biological target: Proto-oncogene tyrosine-protein kinase Src (Homo sapiens) (UniProt P12931); conditions: at 10 µM
Sequence (P12931 2-536 limits assumed): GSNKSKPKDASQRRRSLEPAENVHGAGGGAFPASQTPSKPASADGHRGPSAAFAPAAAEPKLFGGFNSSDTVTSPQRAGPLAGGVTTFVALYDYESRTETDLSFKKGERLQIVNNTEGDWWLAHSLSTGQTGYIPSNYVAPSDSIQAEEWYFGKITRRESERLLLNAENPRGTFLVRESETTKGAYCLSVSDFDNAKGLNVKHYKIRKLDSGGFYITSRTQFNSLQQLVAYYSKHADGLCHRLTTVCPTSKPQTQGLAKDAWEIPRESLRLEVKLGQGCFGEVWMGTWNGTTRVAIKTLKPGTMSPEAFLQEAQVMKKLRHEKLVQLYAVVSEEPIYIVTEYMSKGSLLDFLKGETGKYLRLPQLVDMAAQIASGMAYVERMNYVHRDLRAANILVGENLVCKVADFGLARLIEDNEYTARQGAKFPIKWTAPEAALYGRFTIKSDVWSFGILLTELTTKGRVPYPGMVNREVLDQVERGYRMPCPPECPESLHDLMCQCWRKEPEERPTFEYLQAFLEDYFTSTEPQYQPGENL
Entries and their residual activity
Note: unit % is implicit; provide only the numeric part.

Consider the worked cases shown below.
1) NC(=O)c1ccc2[nH]c(-c3ccc(Oc4ccc(Cl)cc4)cc3)nc2c1	92
2) CCC(=O)Nc1ccc2ncnc(Nc3cccc(Br)c3)c2c1	89
3) COc1cc2ncc(-c3ccccc3)nc2cc1OC	95

In: Identify measured residual activity associated with `Cc1cncc2cccc(S(=O)(=O)N3CCCN(C(=O)CN)C[C@H]3C)c12`
Out: 96

====

molecular target: Tyrosine-protein kinase Fgr (Homo sapiens) (UniProt P09769); conditions: at 10 µM
Sequence (P09769 2-529 limits assumed): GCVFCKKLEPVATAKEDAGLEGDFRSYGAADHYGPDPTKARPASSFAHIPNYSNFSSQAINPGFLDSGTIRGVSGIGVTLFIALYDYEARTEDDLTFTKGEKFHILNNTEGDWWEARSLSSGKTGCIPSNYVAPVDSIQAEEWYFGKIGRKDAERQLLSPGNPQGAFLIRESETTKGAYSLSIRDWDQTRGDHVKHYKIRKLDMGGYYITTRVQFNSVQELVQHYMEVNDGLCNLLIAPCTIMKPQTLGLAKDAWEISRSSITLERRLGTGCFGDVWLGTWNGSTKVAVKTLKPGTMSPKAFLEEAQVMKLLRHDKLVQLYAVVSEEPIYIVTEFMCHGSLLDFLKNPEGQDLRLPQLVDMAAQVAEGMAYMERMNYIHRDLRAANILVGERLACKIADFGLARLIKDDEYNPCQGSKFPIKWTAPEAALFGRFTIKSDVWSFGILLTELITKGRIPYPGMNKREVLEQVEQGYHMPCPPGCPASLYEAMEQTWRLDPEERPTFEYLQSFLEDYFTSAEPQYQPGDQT
Readout: residual activity (%)
Express it in %; write the number only.

Consider the following illustrative entries.
1. N#C/C(=C(\N)Sc1ccc(N)cc1)c1ccccc1C(F)(F)F	73
2. COc1cc2ncnc(Nc3ccc(O)c(Br)c3)c2cc1OC	6
3. c1ccc2c(-c3ccncc3)c[nH]c2c1	91
4. CNc1cc2c(Nc3cccc(Br)c3)ncnc2cn1	60
5. c1ccc(-c2n[nH]c3c2oc2ccccc23)cc1	49
6. Nc1n[nH]c2nnc(-c3c(-c4ccccc4)nn4ccccc34)cc12	50

In: Give the reported residual activity for this compound. `Ic1cccc(CSc2nnc(-c3ccncc3)o2)c1`
Out: 81

In: Recall and state the measured residual activity for `O=C1NC(=O)/C(=C/c2ccc3c(c2)OC(F)(F)O3)S1` .
Out: 101
